- EXPERIMENT SUMMARY: NCI Yeast Anticancer Drug Screen. Data for the mec2-1 strain (AID 157)
- CONDITION: S. cerevisiae mec2-1 strain, at 50.0 µM
The panel holds about 79,000 compounds, 15% with a hit somewhere; the sample as a whole holds those more often. Activity calls are given as the source filed them. Cut-off read from the data, not from the text of the source: active = growth inhibition above about 70%; inactive = the rest.
Can you answer with just one of these options? active, inactive

Examples with answers:
O=c1ssc(=Nc2ccc(Cl)cc2)n1-c1ccc(Cl)cc1 ... active
N#Cc1c(N)nc2c(N=Nc3ccccc3)c(N)nn2c1Nc1ccccc1 ... inactive
O=C(O)c1ccc(NC(c2ccccc2)c2ccc3cccnc3c2O)cc1 (centres undefined) ... active
C/C=C/C=C/C(=O)Nc1ccc([N+](=O)[O-])cc1 ... inactive
CC(=O)Oc1ccc(Cl)cc1Cc1cc(Cl)ccc1OC(C)=O ... active

Check the results log: what was the call for CC(=O)C(C=O)C(C)=O.CC(=O)CC(C)=O.CC(=O)CC(C)=O.[Ru] ?
active

Check the results log: what was the call for CC(=O)N/N=C/c1ccc([N+](=O)[O-])o1 ?
inactive

Check the results log: what was the call for CCCCSc1nc2c([nH]1)c(=S)n(C)c(=S)n2C ?
active

Check the results log: what was the call for OC(C/C(CNNc1ccccc1)=N/Nc1ccccc1)(C(F)(F)F)C(F)(F)F ?
active

Check the results log: what was the call for CCC(Cl)COP(=O)(OCC(Cl)CC)OC(c1ccc(Cl)c(Cl)c1)P(=O)(OCC(Cl)CC)OCC(Cl)CC (centres undefined) ?
active

Check the results log: what was the call for CCCCCC(C)C1=NC(C)(C)CC(C)O1 (centres undefined) ?
inactive

Check the results log: what was the call for O=C1OC2(CCN(Cc3ccccc3)CC2)C(=O)N1c1cccc(Cl)c1 ?
inactive

====

- EXPERIMENT SUMMARY: NCI Yeast Anticancer Drug Screen. Data for the mec2-1 strain (AID 157)
- CONDITION: S. cerevisiae mec2-1 strain, at 50.0 µM (retest, dose inferred, filed as 5.0)
The panel holds about 79,000 compounds, 15% with a hit somewhere; the sample as a whole holds those more often. Calls of active or inactive are those of the source. Cut-off read from the data, not from the text of the source: active = growth inhibition above about 70%; inactive = the rest.
Can you answer with just one of these options? label 1 for active, label 0 for inactive

CCNc1nc(C(F)(F)F)nc2nc[nH]c12 ... label 0

Check the results log: what was the call for Oc1ccc(-c2nnc(-c3ccc(Cl)cc3Cl)o2)cc1 ?
label 1

====

- EXPERIMENT SUMMARY: NCI Yeast Anticancer Drug Screen. Data for the bub3 strain (AID 167)
- CONDITION: S. cerevisiae bub3 mutant strain, at 5.0 µM (retest, dose inferred, filed as 0.5)
This is part of a sample that, as a whole, favours compounds with a hit. Of some 79,000 tested, about 15% had one in any assay. Active and inactive are the calls of the source. Rule as the data show it: active = growth inhibition above about 70%; inactive = the rest.
Can you answer with just one of these options? 1.0 for active, 0.0 for inactive

CN(C)CCCNCC(=O)Nc1ccc(S(=O)(=O)c2ccc(NC(=O)CNCCCN(C)C)cc2)cc1 ... 0.0
NC(=O)c1ccccc1C(=O)O ... 0.0
Oc1cccc2ccc(SSc3ccc4cccc(O)c4n3)nc12 ... 1.0

Check the results log: what was the call for CCOc1ccccc1NC1=C(Cl)C(=O)c2ccccc2C1=O ?
1.0

Check the results log: what was the call for CCCCCCCCCCCCCCCC(=O)NCC[N+](C)(CC)CC ?
0.0

Check the results log: what was the call for C#CC(O)c1ccc(Cl)cc1Cl (stereo not drawn) ?
0.0
